Provenance of the data: ChEMBL document CHEMBL1138499

system: MT2; conditions: human
Description: Cytotoxicity against human MT2 cells by XTT assay
property.name: CC50

Please review the following examples before continuing.
{"smiles.repr": "C=C(COCCN1CCOCC1)[C@@H]1CC[C@]2(C(=O)N[C@@H](CC(C)C)C(=O)O)CC[C@]3(C)[C@H](CC[C@@H]4[C@@]5(C)CC[C@H](O)C(C)(C)[C@@H]5CC[C@]43C)[C@@H]12", "assay.value": "35.8 µM"}
{"smiles.repr": "C=C(CBr)[C@@H]1CC[C@]2(C(=O)NCCCCCCCC(=O)O)CC[C@]3(C)[C@H](CC[C@@H]4[C@@]5(C)CC[C@H](O)C(C)(C)[C@@H]5CC[C@]43C)[C@@H]12", "assay.value": "36.9 µM"}
{"smiles.repr": "C=C(COCCc1ccc(OC)cc1)[C@@H]1CC[C@]2(C(=O)N[C@@H](CC(C)C)C(=O)O)CC[C@]3(C)[C@H](CC[C@@H]4[C@@]5(C)CC[C@H](O)C(C)(C)[C@@H]5CC[C@]43C)[C@@H]12", "assay.value": "16.7 µM"}
{"smiles.repr": "C=C(C)[C@@H]1CC[C@]2(C(=O)N3CCC(CCCC(=O)N4CCOCC4)CC3)CC[C@]3(C)[C@H](CC[C@@H]4[C@@]5(C)CC[C@H](OC(=O)CC(C)(C)C(=O)O)C(C)(C)[C@@H]5CC[C@]43C)[C@@H]12", "assay.value": "19.2 µM"}

// switching to the query compound
response.value for C=C(C)[C@@H]1CC[C@]2(C(=O)N3CCC(CCCC(=O)NC)CC3)CC[C@]3(C)[C@H](CC[C@@H]4[C@@]5(C)CC[C@H](OC(=O)CC(C)(C)C(=O)O)C(C)(C)[C@@H]5CC[C@]43C)[C@@H]12 (field: CC50) = 33.3 µM
